Measured cell viability values are reported for all entries that follow.
Tested on: U2OS
Assay: cell viability relative to DMSO; higher = less toxic
Settings: 72 h; 1 nM
Express your answer in %, writing the number without its unit.

COMPOUND	MEASUREMENT KIND	MEASURE UNIT	RECORDED VALUE
CC[C@@](C)(Nc1ccnc(-c2c[nH]c3ncccc23)n1)C(=O)NCC(F)(F)F [decernotinib]	cell viability	%	96.5
CN1CCN(c2cc(-c3ccccc3)nc(N)n2)CC1	cell viability	%	96.8
COC(=O)C1=CO[C@@H](O)[C@@H]2C(CO)=CC[C@H]12 [genipin]	cell viability	%	93.8

State the recorded cell viability for this entry: CN1C(C(=O)Nc2ccccn2)=C(O)c2sc(Cl)cc2S1(=O)=O [lornoxicam]
100
